Provide the reported self-cleavage of each item.
B1: LINE1-full (parent)
chain: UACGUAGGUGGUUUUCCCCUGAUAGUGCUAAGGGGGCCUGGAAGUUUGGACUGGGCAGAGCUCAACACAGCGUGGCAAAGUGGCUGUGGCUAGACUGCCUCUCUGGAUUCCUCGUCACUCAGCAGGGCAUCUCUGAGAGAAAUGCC

Variants of: B1
Assay: self-cleavage, relative activity (ratio to wild type); higher = more cleavage; in vitro, sequencing; the parent is a self-cleaving ribozyme

Previously resolved entries follow.
| Variant annotation | self-cleavage |
| --- | --- |
| A77G U100A | 1.93 |
| U12C U87A | 0.06 |
| G34A A77G | 1.88 |
| A65C G80A | 0.02 |
| A121U C146U | 1.73 |

Hi, could you look up self-cleavage for each item in my list?
1. U45C A79C
2. U29A A59G
3. U1A U104C

OUT:
[1.23, 0.16, 1.51]

Give measured self-cleavage for every item shown.
1. A77G C90A
2. U45A U91A
3. A64C C95A
4. G105A A117G
5. G33U U134A
6. A43U
7. G36U U45C
8. G32U U85A

OUT:
[0.03, 0.46, 0.01, 1.59, 1.24, 1.26, 1.13, 0.09]

Provide reported self-cleavage for each item, in the same order as listed.
1. A92C U130A
2. G89C A136G
3. A22G G33U
4. G72A U115C
5. U52C U132A
6. U85A U115A

OUT:
1. 0.28
2. 0.06
3. 1.25
4. 0.9
5. 1.88
6. 0.09

# batch: return self-cleavage for each of the 7 variants below
1. U26A G36C
2. G49U U81C
3. U96G U115C
4. U45C G48U
5. U5C A142C
6. G8A U96A
7. G55U

OUT:
1: 0.41; 2: 1.54; 3: 0; 4: 0.9; 5: 0.98; 6: 0.08; 7: 0.19

Quick one: give me self-cleavage for each item below, same order please.
1. U85A U104C
2. A77G A121G
3. G83U U108C

OUT:
1: 0.13; 2: 1.69; 3: 1.07

Could you tell me self-cleavage for each of these variants? They are listed below.
1. G36C A107G
2. A50G A92G
3. C51U A117C
4. G60A G72A
5. U73A A79U
6. U62C U115A

OUT:
2.05
0.19
1.28
0.01
2.48
0.04

IN: What self-cleavage value was documented for this variant, A59U A140G ?
OUT: 0.89
